Provenance of the data: ChEMBL document CHEMBL1126019

Provide the recorded MED99 for the entries that follow.
Species on record: Mus musculus
Assay: Minimum effect dose required to reduce the number of colony forming units in per gram kidney of mice after being challenged, by tail vein injection, with 5 X l0e4 cells of Candida albicans (MY 1055)
Assay type: functional
Numbered stars: 1 amine (or outer) side, 2 acyl side, 3 side chain; on linkers, the order of the positions; unused ones are H or OH. Bridge positions count the residues as written; N and C are the ends. Square brackets hold non-standard residues; d marks the D form. Peptide text beside a SMILES is read from it. * marks the point of attachment. Orn(4R-OH,5R-OH) = O=C([C@H](C[C@@H](O)[C@@H](O)N[*:3])N[*:1])[*:2]; hTyr(3S-OH,4S-OH) = N[C@H](C(=O)O)[C@H](O)[C@@H](O)c1ccc(O)cc1; Pro(3S-OH,4S-Me) = C[C@H]1CN[C@H](C(=O)O)[C@H]1O; Benzoyl(4-octyloxy) = CCCCCCCCOc1ccc(C(=O)*)cc1; Hyp = O=C(O)[C@@H]1C[C@@H](O)CN1
Kindly provide the numeric value in mg/kg only, without the unit symbol.

Lookup result for CCC(C)CC(C)CCCCCCCCC(=O)N[C@H]1C[C@@H](O)[C@@H](O)NC(=O)[C@@H]2[C@@H](O)CCN2C(=O)[C@H]([C@@H](O)CC(N)=O)NC(=O)[C@H]([C@H](O)[C@@H](O)c2ccc(OC(=O)NCCN(C)C)cc2)NC(=O)[C@@H]2C[C@@H](O)CN2C(=O)[C@H]([C@@H](C)O)NC1=O.O=C(O)C(F)(F)F (stereo not given in full) ; measured MED99: 6

Lookup result for CCC(C)CC(C)CCCCCCCCC(=O)N[C@H]1C[C@@H](O)[C@@H](O)NC(=O)[C@@H]2[C@@H](O)CCN2C(=O)[C@H]([C@@H](O)CC(N)=O)NC(=O)[C@H]([C@H](O)[C@@H](O)c2ccc(OC(=O)CCN)cc2)NC(=O)[C@@H]2C[C@@H](O)CN2C(=O)[C@H]([C@@H](C)O)NC1=O.Cl (stereo not given in full) ; measured MED99: 6

Lookup result for CCC(C)CC(C)CCCCCCCCC(=O)N[C@H]1C[C@@H](O)[C@@H](O)NC(=O)[C@@H]2[C@@H](O)CCN2C(=O)[C@H]([C@@H](O)CC(N)=O)NC(=O)[C@H]([C@H](O)[C@@H](O)c2ccc(O)cc2)NC(=O)[C@@H]2C[C@@H](O)CN2C(=O)[C@H]([C@@H](C)O)NC1=O (stereo not given in full) ; measured MED99: 3

Lookup result for CCCCCCCCOc1ccc(C(=O)N[C@H]2C[C@@H](O)[C@@H](O)NC(=O)[C@@H]3[C@@H](O)[C@@H](C)CN3C(=O)[C@H]([C@@H](C)O)NC(=O)[C@H]([C@H](O)[C@@H](O)c3ccc(O)cc3)NC(=O)[C@@H]3C[C@@H](O)CN3C(=O)[C@H]([C@@H](C)O)NC2=O)cc1 [CILOFUNGIN] ({Benzoyl(4-octyloxy)}-[Orn(4R-OH,5R-OH)]T[Hyp][hTyr(3S-OH,4S-OH)]T[Pro(3S-OH,4S-Me)]; lactam 1-C) ; measured MED99: 3

Lookup result for CCC(C)CC(C)CCCCCCCCC(=O)N[C@H]1C[C@@H](O)[C@@H](O)NC(=O)[C@@H]2[C@@H](O)CCN2C(=O)[C@H]([C@@H](O)CC(N)=O)NC(=O)[C@H]([C@H](O)[C@@H](O)c2ccc(OC(=O)CN)cc2)NC(=O)[C@@H]2C[C@@H](O)CN2C(=O)[C@H]([C@@H](C)O)NC1=O.Cl (stereo not given in full) ; measured MED99: 3

Lookup result for CCC(C)CC(C)CCCCCCCCC(=O)N[C@H]1C[C@@H](O)[C@@H](O)NC(=O)[C@@H]2[C@@H](O)CCN2C(=O)[C@H]([C@@H](O)CC(N)=O)NC(=O)[C@H]([C@H](O)[C@@H](O)c2ccc(OC(=O)CCCC(=O)O)cc2)NC(=O)[C@@H]2C[C@@H](O)CN2C(=O)[C@H]([C@@H](C)O)NC1=O (stereo not given in full) ; measured MED99: 6

Lookup result for CCC(C)CC(C)CCCCCCCCC(=O)N[C@H]1C[C@@H](O)[C@@H](O)NC(=O)[C@@H]2[C@@H](O)CCN2C(=O)[C@H]([C@@H](O)CC(N)=O)NC(=O)[C@H]([C@H](O)[C@@H](O)c2ccc(OC(=O)OCCN(C)C)cc2)NC(=O)[C@@H]2C[C@@H](O)CN2C(=O)[C@H]([C@@H](C)O)NC1=O.O=C(O)C(F)(F)F (stereo not given in full) ; measured MED99: 6
